We begin with a simple list: items and their reported IC50.
Tested on: 287954-098-R-J1 tumor spheroid viability;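 note: spheroids exposed to compound for 7 days before viability readout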
ASSAY_DETAILS: Anticancer human tumor 287954-098-R-J1 patient-derived Ewing sarcoma cell line growth inhibition
ASSAY_SETUP: curve of first compound; second compound 1 µM; spheroids with HUVEC and MSC
Note: unit µM is implicit; provide only the numeric part.

Below, each entry is followed by its recorded IC50 result.
MOLECULE	TESTED_SYSTEM	QUANTITATIVE_READOUT
Cc1sc2c(c1C)C(c1ccc(Cl)cc1)=NC(CC(=O)Nc1ccc(O)cc1)c1nnc(C)n1-2 (configuration not stated) + Cn1nnc2c(C(N)=O)ncn2c1=O	287954-098-R-J1 tumor spheroid viability	0.954
O=C(c1cc(Cc2n[nH]c(=O)c3ccccc23)ccc1F)N1CCN(C(=O)C2CC2)CC1 + Cn1nnc2c(C(N)=O)ncn2c1=O	287954-098-R-J1 tumor spheroid viability	20.6

Turning now to a further record.
Ask | // query IC50 value for entry Cn1ncnc1[C@H]1c2n[nH]c(=O)c3cc(F)cc(c23)N[C@@H]1c1ccc(F)cc1 + Cn1nnc2c(C(N)=O)ncn2c1=O
Reply | 0.544
